These measurements were taken from BigSolDB 2.1.

settings: in n-butanol, 303.15 K
OUTCOME MEASURE: solubility (mole fraction)

According to the records, this molecule CC(=O)c1ccc(O)cc1O displays solubility (mole fraction) of 0.133

* * *

settings: in n-butanol, 298.15 K
OUTCOME MEASURE: solubility (mole fraction)

According to the records, this compound CC(=O)c1ccc(O)cc1O displays solubility (mole fraction) of 0.118

* * *

settings: in isopropanol, 328.15 K
OUTCOME MEASURE: solubility (mole fraction)
In your answer, state the number alone without any accompanying words.

According to the records, this compound CC(=O)c1ccc(O)cc1O displays solubility (mole fraction) of 0.25

* * *

conditions: in ethyl acetate, 323.15 K
OUTCOME MEASURE: solubility (mole fraction)

According to the records, this compound CC(=O)c1ccc(O)cc1O displays solubility (mole fraction) of 0.199

* * *

details: in n-propyl acetate, 333.15 K
OUTCOME MEASURE: solubility (mole fraction)
In your answer, state the number alone without any accompanying words.

According to the records, this molecule CC(=O)c1ccc(O)cc1O displays solubility (mole fraction) of 0.222

* * *

conditions: in benzene, 333.15 K
OUTCOME MEASURE: solubility (mole fraction)
In your answer, state the number alone without any accompanying words.

According to the records, this molecule CC(=O)c1ccc(O)cc1O displays solubility (mole fraction) of 0.00207

* * *

details: in benzene, 323.15 K
OUTCOME MEASURE: solubility (mole fraction)

According to the records, this molecule CC(=O)c1ccc(O)cc1O displays solubility (mole fraction) of 0.0015

* * *

settings: in ethanol, 308.15 K
OUTCOME MEASURE: solubility (mole fraction)
In your answer, state the number alone without any accompanying words.

According to the records, this compound CC(=O)c1ccc(O)cc1O displays solubility (mole fraction) of 0.162

* * *

settings: in methyl acetate, 313.15 K
OUTCOME MEASURE: solubility (mole fraction)

According to the records, this compound CC(=O)c1ccc(O)cc1O displays solubility (mole fraction) of 0.168

* * *

settings: in n-propyl acetate, 318.15 K
OUTCOME MEASURE: solubility (mole fraction)
In your answer, state the number alone without any accompanying words.

According to the records, this molecule CC(=O)c1ccc(O)cc1O displays solubility (mole fraction) of 0.171

* * *

settings: in methyl acetate, 293.15 K
OUTCOME MEASURE: solubility (mole fraction)
In your answer, state the number alone without any accompanying words.

According to the records, this compound CC(=O)c1ccc(O)cc1O displays solubility (mole fraction) of 0.114

* * *

conditions: in benzene, 313.15 K
OUTCOME MEASURE: solubility (mole fraction)
In your answer, state the number alone without any accompanying words.

According to the records, this molecule CC(=O)c1ccc(O)cc1O displays solubility (mole fraction) of 0.00102

* * *

conditions: in methanol, 318.15 K
OUTCOME MEASURE: solubility (mole fraction)
In your answer, state the number alone without any accompanying words.

According to the records, this compound CC(=O)c1ccc(O)cc1O displays solubility (mole fraction) of 0.183

* * *

conditions: in isobutanol, 333.15 K
OUTCOME MEASURE: solubility (mole fraction)
In your answer, state the number alone without any accompanying words.

According to the records, this molecule CC(=O)c1ccc(O)cc1O displays solubility (mole fraction) of 0.221

* * *

settings: in methanol, 293.15 K
OUTCOME MEASURE: solubility (mole fraction)
In your answer, state the number alone without any accompanying words.

According to the records, this compound CC(=O)c1ccc(O)cc1O displays solubility (mole fraction) of 0.103
